Ref: patent US20220062258A1

Let's look at some compounds and their measured pIC50.
- TEST SYSTEM: MetAP-2 (Homo sapiens)
- Sequence (P50579 2-478): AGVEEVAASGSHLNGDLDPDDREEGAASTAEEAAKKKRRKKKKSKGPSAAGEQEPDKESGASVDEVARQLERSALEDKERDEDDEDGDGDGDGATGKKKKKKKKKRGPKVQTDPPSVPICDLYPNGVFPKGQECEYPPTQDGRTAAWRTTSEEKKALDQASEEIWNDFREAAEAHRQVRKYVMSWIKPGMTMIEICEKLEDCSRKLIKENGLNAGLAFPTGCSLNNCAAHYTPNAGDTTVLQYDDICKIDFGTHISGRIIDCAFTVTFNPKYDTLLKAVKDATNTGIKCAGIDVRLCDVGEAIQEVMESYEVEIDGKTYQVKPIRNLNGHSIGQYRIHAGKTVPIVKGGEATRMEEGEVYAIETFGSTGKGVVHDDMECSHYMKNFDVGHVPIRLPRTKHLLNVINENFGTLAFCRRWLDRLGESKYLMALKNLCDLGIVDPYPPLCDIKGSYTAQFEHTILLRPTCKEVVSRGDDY
- TEST PROTOCOL: Biochemical activity testing of MetAP-2 (enzyme-coupled assay, Met-Ala-Ser substrate)
A value of pIC50 is the negative decimal logarithm of a concentration given in moles per litre.

Below, each entry is followed by its recorded pIC50 result.
[
  {
    "COMPOUND": "Cc1ncsc1-c1ccc(CNC(=O)[C@@H]2C[C@@H](O)CN2C(=O)[C@@H](NC(=O)CCCCCNC(=O)c2cc3cc(N4CC[C@@](O)(C(=O)NCc5cc(F)cc(F)c5)C4=O)ccc3[nH]2)C(C)(C)C)cc1 (mixture of isomers)",
    "TEST SYSTEM": "MetAP-2 (Homo sapiens)",
    "pIC50": 6.26
  },
  {
    "COMPOUND": "Cc1ncsc1-c1ccc(CNC(=O)[C@@H]2C[C@@H](O)CN2C(=O)[C@@H](NC(=O)COCCOCCOCCOCCNC(=O)c2cc3cc(N4CCC(O)(C(=O)NCc5cc(F)cc(F)c5)C4=O)ccc3[nH]2)C(C)(C)C)cc1 (stereo partly drawn)",
    "TEST SYSTEM": "MetAP-2 (Homo sapiens)",
    "pIC50": 6.49
  }
]

Now, please, on to the next compound.
Entry Cc1ncsc1-c1ccc(CNC(=O)[C@@H]2C[C@@H](O)CN2C(=O)[C@@H](NC(=O)COCCOCCOCCOCCOCCNC(=O)c2cc3cc(N4CCC(O)(C(=O)NCc5cc(F)cc(F)c5)C4=O)ccc3[nH]2)C(C)(C)C)cc1 (stereo partly drawn) under MetAP-2 (Homo sapiens) had pIC50 of 6.48
